Data origin, for the record: patent US5948754A

# Lookup of reported IC50 keyed by entry
Target: endothelin B (ETB) receptors (Bos taurus)
Construct: A membrane fraction prepared from a bovine brain; from tissue; host or cells: bovine brain membrane fraction
Sequence (P28088 27-441): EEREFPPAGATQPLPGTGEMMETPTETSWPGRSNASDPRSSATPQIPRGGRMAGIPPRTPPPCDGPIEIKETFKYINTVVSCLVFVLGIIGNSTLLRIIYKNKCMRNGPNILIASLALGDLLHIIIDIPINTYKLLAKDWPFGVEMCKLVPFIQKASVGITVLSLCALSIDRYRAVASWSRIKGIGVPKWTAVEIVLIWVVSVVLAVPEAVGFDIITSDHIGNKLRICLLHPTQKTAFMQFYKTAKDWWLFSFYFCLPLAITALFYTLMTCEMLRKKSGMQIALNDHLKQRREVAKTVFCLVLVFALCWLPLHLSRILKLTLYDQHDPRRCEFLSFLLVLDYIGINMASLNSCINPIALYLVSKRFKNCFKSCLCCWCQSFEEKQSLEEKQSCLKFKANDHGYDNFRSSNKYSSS
Experiment: Determination of ETB receptor binding activity ([125I]ET-1, bovine brain membrane fraction)
Details: [125I]ET-1 binding, 25° C., 1 hour
Where a SMILES comes first, the peptide text is derived from it. [ ]: non-standard residue; d: D form. The star is where a group is joined. Piperazinyl(4-(2-MeOPh)) = COc1ccccc1N1CCN(*)CC1; Piperazinyl(4-Ph) = c1ccc(N2CCN(*)CC2)cc1; dGly(2-thienyl) = N[C@@H](C(=O)O)c1cccs1; d(tBuAla) = CC(C)(C)C[C@@H](N)C(=O)O
Express the result in nM but write the number alone.

Molecule | Readout | Unit Of Measure | Quantitative Readout
COc1ccccc1N1CCN(C(=O)C[C@@H]2NC(=O)[C@@H](CC(=O)O)NC(=O)[C@@H](Cc3cn(C(C)=O)c4ccccc34)NC(=O)[C@H](CC(C)C)NC(=O)[C@@H](CC(C)(C)C)NC(=O)[C@H](CC(=O)O)NC2=O)CC1 [Example 3] (cyclo(D(Piperazinyl(4-(2-MeOPh)))D[d(tBuAla)]L[dW](Ac)[dD])) | IC50 | nM | 14
CC(C)C[C@@H]1NC(=O)[C@@H](c2cccs2)NC(=O)[C@H](CC(=O)O)NC(=O)[C@H](CC(=O)N2CCN(c3ccccc3)CC2)NC(=O)[C@@H](CC(=O)O)NC(=O)[C@@H](Cc2c[nH]c3ccccc23)NC1=O [Reference Example 1, reference compound] (cyclo(D(Piperazinyl(4-Ph))D[dGly(2-thienyl)]L[dW][dD])) | IC50 | nM | 120
CC(C)C[C@@H]1NC(=O)[C@@H](CC(C)(C)C)NC(=O)[C@H](CC(=O)O)NC(=O)[C@H](CC(=O)N2CCN(c3ccccc3)CC2)NC(=O)[C@@H](CC(=O)O)NC(=O)[C@@H](Cc2c[nH]c3ccccc23)NC1=O [Example 2] (cyclo(D(Piperazinyl(4-Ph))D[d(tBuAla)]L[dW][dD])) | IC50 | nM | 28

Then there is this molecule:
// IC50 value for COc1ccccc1N1CCN(C(=O)C[C@@H]2NC(=O)[C@@H](CC(=O)O)NC(=O)[C@@H](Cc3c[nH]c4ccccc34)NC(=O)[C@H](CC(C)C)NC(=O)[C@@H](CC(C)(C)C)NC(=O)[C@H](CC(=O)O)NC2=O)CC1 [Example 1] (cyclo(D(Piperazinyl(4-(2-MeOPh)))D[d(tBuAla)]L[dW][dD])) : 11
